Property: pIC50; scope: individual molecules
Target: Transient receptor potential cation channel subfamily V member 1 (Rattus norvegicus, UniProt O35433)
Sequence (O35433 whole entry): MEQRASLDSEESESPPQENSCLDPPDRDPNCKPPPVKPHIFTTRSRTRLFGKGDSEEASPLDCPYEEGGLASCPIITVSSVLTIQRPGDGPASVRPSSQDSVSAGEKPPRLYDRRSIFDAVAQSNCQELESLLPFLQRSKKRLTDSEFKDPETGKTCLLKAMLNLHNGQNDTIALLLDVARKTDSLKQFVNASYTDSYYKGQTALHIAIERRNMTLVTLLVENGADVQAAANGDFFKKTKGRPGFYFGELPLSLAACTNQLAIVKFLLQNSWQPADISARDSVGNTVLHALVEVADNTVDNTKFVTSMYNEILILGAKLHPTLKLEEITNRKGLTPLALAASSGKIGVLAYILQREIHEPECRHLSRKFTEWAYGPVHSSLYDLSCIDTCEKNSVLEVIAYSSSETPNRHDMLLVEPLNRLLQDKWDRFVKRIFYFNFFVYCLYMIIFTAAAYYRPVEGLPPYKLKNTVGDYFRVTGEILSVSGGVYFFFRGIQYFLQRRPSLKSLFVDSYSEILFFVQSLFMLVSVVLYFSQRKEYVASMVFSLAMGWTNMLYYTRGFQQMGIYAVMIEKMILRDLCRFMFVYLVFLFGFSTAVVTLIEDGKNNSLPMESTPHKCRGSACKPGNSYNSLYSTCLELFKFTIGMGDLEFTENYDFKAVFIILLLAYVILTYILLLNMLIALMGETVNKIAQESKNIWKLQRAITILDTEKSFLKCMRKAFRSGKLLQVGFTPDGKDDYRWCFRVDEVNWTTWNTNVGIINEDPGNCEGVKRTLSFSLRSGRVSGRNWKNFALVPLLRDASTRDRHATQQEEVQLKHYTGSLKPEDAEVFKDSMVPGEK
Assay: Inhibitory effect on capsaicin (0.5 uM)-induced calcium uptake in rat DRG neurons upon incubation at RT for 10 minutes
pIC50 is a log-scale quantity: -log10 of the concentration expressed in molar.

- Structure As Smiles: "CCOC(=O)N/C(=N\\Cc1ccc(NS(C)(=O)=O)c(F)c1)NCc1ccc(C(C)(C)C)cc1"
  Property Label: "pIC50"
  Measured Result: 5.21
- Structure As Smiles: "Cc1cccc(CNC(=S)NCc2ccc(NS(C)(=O)=O)c(F)c2)c1"
  Property Label: "pIC50"
  Measured Result: 5.89

Challenge: Could you tell me which pIC50 is on file for "Cc1ccccc1C/N=C(\S)NCc1ccc(NS(C)(=O)=O)c(F)c1" ?
Response given: 6.17
